Test system: Cell line
Test: Effective concentration of compound for transcriptional repression of PGE-2 in Human cell native protein assay
pEC50: −log10 of the molar value.
Property: pEC50; scope: individual molecules

{"test-smiles": "COc1cccc2c1-c1ccc3c(c1[C@H]([C@H]1C=C(C)CCC1)O2)C(C)=CC(C)(C)N3", "pEC50": 7.46}
{"test-smiles": "COc1cccc2c1-c1ccc3c(c1[C@H]([C@@H]1C=C(C)CCC1)O2)C(C)=CC(C)(C)N3", "pEC50": 8.27}
{"test-smiles": "C[C@]12C=CC(=O)C=C1CC[C@@H]1[C@@H]2[C@@H](O)C[C@@]2(C)[C@H]1CC[C@]2(O)C(=O)CO", "pEC50": 8.70}

Source of measurements: ChEMBL document CHEMBL1147494
